# TEST_NAME: Cell Viability - LYMP2-024 (AID 988);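 further: cells exposed to compound for 24 hr at 37 °C; nearly all actives have a fitted effect of over 60% in size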
# TEST_CONTEXT: LYMP2-024 lymphoblastoid cell viability; series mostly up to 92.2 µM
Records with an inconclusive call do not appear. Calls of active or inactive are those of the source. The call rests on the fitted dose curve; in most records, active means well fitted cell-killing curve with a large enough effect; inconclusive means small, poorly fitted or top-dose-only effect; inactive means flat fitted curve, though single readings scatter.
Respond with a class label; see True (active), False (inactive)

Given `O=Cc1ccco1` , state the outcome it received in this test.
False

Now give it for `ClC=C(Cl)Cl` too.
False

Now give it for `O=C1CCO1` too.
False

Now give it for `O=C1C=CC(=O)C=C1` too.
True

Now give it for `CC(C)(C)c1cc(O)ccc1O` too.
True

Now give it for `CCCCCl` too.
False

Now give it for `[O]=[Cd]` too.
False

Now give it for `O=C/C=C/c1ccccc1` too.
False

Now give it for `O=[N+]([O-])c1ccccc1` too.
False

Now give it for `[Cl-].[Cl-].[Hg+2]` too.
True

New cases:
Given `CCCCCCCCOC(=O)c1ccccc1C(=O)OCCCCCCCC` , state the outcome it received in this test.
False

Now give it for `NNC(N)=O` too.
False

Now give it for `C[C@]12CCC(=O)C[C@@H]1CC[C@@H]1[C@@H]2CC[C@]2(C)[C@@H](O)CC[C@@H]12` too.
False

Now give it for `ClC(Cl)(Cl)Cl` too.
False

Now give it for `S=C=S` too.
False

---

Listed compounds paired with reported max response
# TEST_NAME: qHTS assay for small molecule antagonists of retinoid X receptor alpha signaling (AID 588546);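 further: cells stimulated with 9-cis-retinoic acid as agonist; on the % scale 0 is the no-effect control and ±100 the full control effect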
# TEST_CONTEXT: HEK293T RXRa-UAS-bla, beta-lactamase ratio, antagonist mode; measured here: W530 green channel, cytotoxicity proxy
Results filed as inconclusive are left out.
Form entry: value (%) — number only.

# annotated cases, reported max response shown
Query (compound): `O=Cc1ccco1` ; field requested: max response
9.13

Now give it for `S=C=S` too.
-8.84

New cases:
Query (compound): `O=[N+]([O-])c1ccccc1` ; field requested: max response
-18.4

Now give it for `C[C@]12CCC(=O)C[C@@H]1CC[C@@H]1[C@@H]2CC[C@]2(C)[C@@H](O)CC[C@@H]12` too.
16.7

Now give it for O=C1C2CC=CCC2C(=O)N1SC(Cl)(Cl)Cl (centres undefined) too.
-2.91

Now give it for `C[CH2][Hg][S]c1ccccc1C(=O)O` too.
-29.7

Now give it for `ClC(Cl)(Cl)Cl` too.
-0.129

Now give it for `CCCSP(=O)(OCC)SCCC` too.
-12.4

Now give it for `[O]=[Cd]` too.
-14.7

---

# SYSTEM: ATP-dependent 6-phosphofructokinase (Trypanosoma brucei brucei)
# TEST_NAME: qHTS Assay to Find Inhibitors of T. brucei phosphofructokinase: hit validation (AID 492961);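 further: luminescence reports ADP formed as PFK phosphorylates fructose-6-phosphate with ATP; on the % scale 0 is the no-effect control and ±100 the full control effect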
# TEST_CONTEXT: T. brucei PFK, ADP-Glo luminescence; series mostly up to 51.4 µM
Inconclusive results are not listed. Active and inactive are the calls of the source. The call rests on the fitted dose curve; in most records, active means well fitted inhibition curve with a large enough effect; inconclusive means small, poorly fitted or top-dose-only effect, or effect the other way; inactive means flat fitted curve, though single readings scatter.
OUTCOME_MEASURE: outcome

Query (molecule): `CNC(=O)OCC[N+](C)(C)C` ; field requested: outcome
inactive

Now give it for OC(c1ccccc1)(c1ccccc1)C1CN2CCC1CC2 (stereo not drawn) too.
inactive

Now give it for O=C(NCNC(=O)NC1C(=O)NC(=O)N1CO)NC1C(=O)NC(=O)N1CO (stereo not drawn) too.
inactive

Now give it for `O=P(O)(O)C(Cl)(Cl)P(=O)(O)O` too.
inactive

Now give it for `F/C(COc1ccc2c(c1)[nH]c1ccccc12)=C1/CN2CCC1CC2` too.
inactive

New cases:
Query (molecule): `c1csc(C2(N3CCCCC3)CCCCC2)c1` ; field requested: outcome
inactive

Now give it for `O=[N+]([O-])c1ccc(F)c([N+](=O)[O-])c1` too.
inactive

Now give it for `CNC(=O)Oc1ccccc1C(=O)Nc1ccccc1` too.
inactive

Now give it for `C[C@H]1CCC[C@H](O)CCCCCc2cc(O)cc(O)c2C(=O)O1` too.
inactive

Now give it for `CCON=O` too.
inactive

Now give it for `ClC(Cl)(Cl)Cl` too.
inactive

Now give it for COCC(C)N(C(=O)CCl)c1c(C)csc1C (stereo not drawn) too.
inactive

Now give it for CNC(C)C(O)c1ccc(O)cc1 (stereo not drawn) too.
inactive
